Tested on: Leaf
Experiment: Drug uptake in Solanum lycopersicum (tomato) leaves after 60 to 151 days post germination by GC-ECD analysis
Format: ADME
Where a name gives a salt, the structure may show the parent alone.
log10(Drug uptake) values, listed per item
Readout: log10(Drug uptake) (log10 of the value in ng/g)

{"Compound": "ClC(Cl)=C(c1ccc(Cl)cc1)c1ccc(Cl)cc1", "Quantitative readout": 0.78}
{"Compound": "Clc1ccc(C(c2ccc(Cl)cc2)C(Cl)(Cl)Cl)cc1", "Quantitative readout": 0.36}
{"Compound": "Cl[C@H]1[C@H](Cl)[C@@H](Cl)[C@H](Cl)[C@@H](Cl)[C@H]1Cl", "Quantitative readout": 0.08}
{"Compound": "O=S1OC[C@@H]2[C@H](CO1)[C@@]1(Cl)C(Cl)=C(Cl)[C@]2(Cl)C1(Cl)Cl (stereo partly drawn) [ALPHA-ENDOSULFAN]", "Quantitative readout": 0.54}
{"Compound": "O=S1(=O)OCC2C(CO1)C1(Cl)C(Cl)=C(Cl)C2(Cl)C1(Cl)Cl (centres undefined) [ENDOSULFAN SULFATE]", "Quantitative readout": 1.58}
{"Compound": "O=S1OC[C@@H]2[C@H](CO1)[C@]1(Cl)C(Cl)=C(Cl)[C@]2(Cl)C1(Cl)Cl (stereo partly drawn) [BETA-ENDOSULFAN]", "Quantitative readout": 0.52}
{"Compound": "Cl[C@H]1[C@H](Cl)[C@H](Cl)[C@@H](Cl)[C@H](Cl)[C@H]1Cl", "Quantitative readout": -0.22}
{"Compound": "Cl[C@H]1[C@H](Cl)[C@@H](Cl)[C@@H](Cl)[C@H](Cl)[C@H]1Cl", "Quantitative readout": -0.05}
{"Compound": "Cl[C@H]1[C@H](Cl)[C@@H](Cl)[C@H](Cl)[C@@H](Cl)[C@@H]1Cl", "Quantitative readout": 0.20}

* * *

Test system: Leaf
Assay: Drug uptake in Solanum lycopersicum (tomato) leaves after 1 to 15 days post germination by GC-ECD analysis
Type: ADME
Where a name gives a salt, the structure may show the parent alone.
Recorded Drug uptake, one value per entry.
Readout: Drug uptake

{"Molecule": "O=S1OC[C@@H]2[C@H](CO1)[C@@]1(Cl)C(Cl)=C(Cl)[C@]2(Cl)C1(Cl)Cl (stereo partly drawn) [ALPHA-ENDOSULFAN]", "Result": "1 ng/g"}
{"Molecule": "O=S1(=O)OCC2C(CO1)C1(Cl)C(Cl)=C(Cl)C2(Cl)C1(Cl)Cl (centres undefined) [ENDOSULFAN SULFATE]", "Result": "126.5 ng/g"}
{"Molecule": "Cl[C@H]1[C@H](Cl)[C@H](Cl)[C@@H](Cl)[C@H](Cl)[C@H]1Cl [ALPHA-HEXACHLOROCYCLOHEXANE]", "Result": "1.2 ng/g"}
{"Molecule": "ClC(Cl)=C(c1ccc(Cl)cc1)c1ccc(Cl)cc1 [DICHLORODIPHENYLDICHLOROETHYLENE]", "Result": "2.8 ng/g"}
{"Molecule": "Cl[C@H]1[C@H](Cl)[C@@H](Cl)[C@H](Cl)[C@@H](Cl)[C@H]1Cl [DELTA-HEXACHLOROCYCLOHEXANE]", "Result": "2.4 ng/g"}
{"Molecule": "Clc1ccc(C(c2ccc(Cl)cc2)C(Cl)(Cl)Cl)cc1 [CHLOROPHENOTHANE]", "Result": "8.9 ng/g"}
{"Molecule": "Cl[C@H]1[C@H](Cl)[C@@H](Cl)[C@H](Cl)[C@@H](Cl)[C@@H]1Cl [BETA-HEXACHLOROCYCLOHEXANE]", "Result": "4.2 ng/g"}
{"Molecule": "O=S1OC[C@@H]2[C@H](CO1)[C@]1(Cl)C(Cl)=C(Cl)[C@]2(Cl)C1(Cl)Cl (stereo partly drawn) [BETA-ENDOSULFAN]", "Result": "1.1 ng/g"}
{"Molecule": "Cl[C@H]1[C@H](Cl)[C@@H](Cl)[C@@H](Cl)[C@H](Cl)[C@H]1Cl [LINDANE]", "Result": "9.9 ng/g"}

Hey, just so you know, these numbers are from ChEMBL document CHEMBL3046143.
